Biological target: AR protein (Homo sapiens, UniProt P10275, T878A)
Construct: degradation activity of the compounds disclosed in the present disclosure on AR protein in LNCaP cells; host or cells: LNCaP FGC
Sequence (P10275 whole entry T878A): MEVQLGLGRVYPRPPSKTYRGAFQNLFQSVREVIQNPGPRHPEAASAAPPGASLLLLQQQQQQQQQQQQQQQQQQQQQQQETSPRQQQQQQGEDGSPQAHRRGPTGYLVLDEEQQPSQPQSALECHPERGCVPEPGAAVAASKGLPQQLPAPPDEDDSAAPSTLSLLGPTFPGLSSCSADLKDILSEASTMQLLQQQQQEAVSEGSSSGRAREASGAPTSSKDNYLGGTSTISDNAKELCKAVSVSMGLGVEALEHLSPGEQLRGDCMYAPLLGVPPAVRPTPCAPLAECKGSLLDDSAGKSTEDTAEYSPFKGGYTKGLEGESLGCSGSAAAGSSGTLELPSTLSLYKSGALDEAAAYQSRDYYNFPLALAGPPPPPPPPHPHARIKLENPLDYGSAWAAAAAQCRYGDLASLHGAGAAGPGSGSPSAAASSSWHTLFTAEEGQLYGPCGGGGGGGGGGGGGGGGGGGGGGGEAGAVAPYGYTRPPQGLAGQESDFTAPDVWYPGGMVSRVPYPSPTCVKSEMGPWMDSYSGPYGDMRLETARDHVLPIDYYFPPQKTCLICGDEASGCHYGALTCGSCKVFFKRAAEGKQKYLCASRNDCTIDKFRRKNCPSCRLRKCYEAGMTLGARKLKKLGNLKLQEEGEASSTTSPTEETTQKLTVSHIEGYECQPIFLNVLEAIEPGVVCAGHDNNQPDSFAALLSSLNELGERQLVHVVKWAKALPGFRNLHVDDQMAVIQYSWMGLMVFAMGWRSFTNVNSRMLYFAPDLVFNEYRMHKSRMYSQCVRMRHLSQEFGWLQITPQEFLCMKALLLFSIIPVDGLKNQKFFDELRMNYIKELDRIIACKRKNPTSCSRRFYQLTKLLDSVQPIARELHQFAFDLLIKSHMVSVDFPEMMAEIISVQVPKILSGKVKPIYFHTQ
Assay: Degradation of AR protein in LNCaP cells (Western blot)
Format: cell-based
Conditions: LNCaP, 8 h, read-out: Degradation rates of the AR protein in LNCaP cells, 100 nM (%)
Label criterion met when inhibition at 0.1 µM is at or above 50%; anything below gets criterion not met.

- N#Cc1ccc(O[C@H]2CC[C@H](NC(=O)c3ccc(N4CC(N5CCC6(CC5)COc5c(ccc7c5C(=O)N(C5CCC(=O)NC5=O)C7)C6)C4)nn3)CC2)cc1Cl (some centres unmarked) [Compound 191]: criterion not met
- N#Cc1ccc(O[C@H]2CC[C@H](NC(=O)c3ccc(N4CCC(N5CCC6(CC5)CC(F)(F)c5cc7c(cc5O6)C(=O)N(C5CCC(=O)NC5=O)C7=O)CC4)nn3)CC2)cc1Cl (some centres unmarked) [Compound 38]: criterion not met
- N#Cc1ccc(O[C@H]2CC[C@H](NC(=O)c3ccc(N4CCC(N5CCC6(CC5)COc5cc7c(cc56)C(=O)N(C5CCC(=O)NC5=O)C7=O)CC4)nn3)CC2)cc1Cl (some centres unmarked) [Compound 48]: criterion met
- N#Cc1ccc(O[C@H]2CC[C@H](NC(=O)c3ccc(N4CC(N5CC6(CCc7cc8c(cc7O6)C(=O)N(C6CCC(=O)NC6=O)C8=O)C5)C4)nn3)CC2)cc1Cl (some centres unmarked) [Compound 5]: criterion not met
- N#Cc1ccc(O[C@H]2CC[C@H](NC(=O)c3ccc(N4CC(N5CCC6(CCc7ccc8c(c7O6)CN(C6CCC(=O)NC6=O)C8=O)CC5)C4)nn3)CC2)cc1Cl (some centres unmarked) [Compound 172]: criterion not met
- N#Cc1ccc(O[C@H]2CC[C@H](NC(=O)c3ccc(N4CCC(N5CCC6(CCc7ccc8c(c7O6)CN(C6CCC(=O)NC6=O)C8=O)CC5)CC4)nn3)CC2)cc1Cl (some centres unmarked) [Compound 171]: criterion not met
- N#Cc1ccc(O[C@H]2CC[C@H](NC(=O)c3ccc(N4CC(N5CCC6(CCc7cc8c(cc7O6)C(=O)N(C6CCC(=O)NC6=O)C8=O)CC5)C4)nn3)CC2)cc1Cl (some centres unmarked) [Compound 25]: criterion not met
- COc1cc(O[C@H]2CC[C@H](NC(=O)c3ccc(N4CCC(CN5CCC6(CC5)COc5c6ccc6c5C(=O)N(C5CCC(=O)NC5=O)C6=O)(OC)CC4)cc3)CC2)ccc1C#N (some centres unmarked) [Compound 219]: criterion not met
- N#Cc1ccc(O[C@H]2CC[C@H](NC(=O)c3ccc(N4CCC(N5CCC(N6CCC7(CC6)COc6c7ccc7c6CN(C6CCC(=O)NC6=O)C7=O)CC5)CC4)nn3)CC2)cc1Cl (some centres unmarked) [Compound 173]: criterion met
- N#Cc1ccc(O[C@H]2CC[C@H](NC(=O)c3ccc(N4CCC(N5CCC6(CCc7cc8c(cc7O6)C(=O)N(C6CCC(=O)NC6=O)C8=O)CC5)CC4)nn3)CC2)cc1Cl (some centres unmarked) [Compound 26]: criterion met
- N#Cc1ccc(O[C@H]2CC[C@H](NC(=O)c3ccc(N4CC(N5CCC6(CC5)Cc5cc7c(cc5O6)C(=O)N(C5CCC(=O)NC5=O)C7=O)C4)nn3)CC2)cc1Cl (some centres unmarked) [Compound 79]: criterion not met
- N#Cc1ccc(O[C@H]2CC[C@H](NC(=O)c3ccc(N4CC(N5CCC6(CC5)COc5cc7c(cc56)C(=O)N(C5CCC(=O)NC5=O)C7=O)C4)nn3)CC2)cc1Cl (some centres unmarked) [Compound 49]: criterion not met
- N#Cc1ccc(O[C@H]2CC[C@H](NC(=O)c3ccc(N4CCC(N5CCC6(CC5)COc5c6ccc6c5CN(C5CCC(=O)NC5=O)C6=O)CC4)nn3)CC2)cc1Cl (some centres unmarked) [Compound 169]: criterion met
